# testSystem: human glucagon receptor (human, UniProt P47871 26-477)
# Sequence (P47871 26-477): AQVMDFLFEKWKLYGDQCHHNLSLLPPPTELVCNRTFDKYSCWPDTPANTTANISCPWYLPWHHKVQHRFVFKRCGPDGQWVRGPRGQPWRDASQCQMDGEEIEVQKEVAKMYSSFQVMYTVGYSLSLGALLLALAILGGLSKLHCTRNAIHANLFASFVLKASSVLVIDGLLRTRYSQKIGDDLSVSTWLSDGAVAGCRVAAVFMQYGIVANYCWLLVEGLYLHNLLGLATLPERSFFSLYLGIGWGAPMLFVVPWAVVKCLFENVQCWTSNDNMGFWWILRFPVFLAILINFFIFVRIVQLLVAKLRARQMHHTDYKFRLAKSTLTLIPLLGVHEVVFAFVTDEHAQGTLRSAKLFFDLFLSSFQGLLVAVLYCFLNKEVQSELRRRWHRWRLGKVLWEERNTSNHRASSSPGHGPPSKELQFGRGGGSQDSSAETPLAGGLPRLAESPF
# measurementDescription: cell-based or functional assay
Numbered stars: 1 amine (or outer) side, 2 acyl side, 3 side chain; on linkers, the order of the positions; unused ones are H or OH. Square brackets hold non-standard residues; d marks the D form. Side chains are listed from the residue outwards. Ends that are not written are not given here. γGlu = O=C(O)[C@H](CCC(=O)[*:2])N[*:1]; X70 = not defined here; Aib = CC(C)(N)C(=O)O
quantity: EC50 hGlucagon-R (cAMP) (nM)
One number for each entry, in nM.

binder | quantity | valueUnit | measurement
HXQGTFTSDLSKQKDSRRAQDFIEWLKRGGPSSGAPPPS (dSer at 2; K(γE-x53) at 14; C-terminal NH2) [SEQ ID NO: 125] | EC50 hGlucagon-R (cAMP) | nM | 0.0069
HXQGTFTSDLSKQXDSKAAQDFIEWLKAGGPSSGAPPPS (dSer at 2; Nle at 14; C-terminal NH2) [SEQ ID NO: 192] | EC50 hGlucagon-R (cAMP) | nM | 0.478
HXQGTFTSDLSKQLEEEAARLFIEWLKAGGPSSGAPPPS (Aib at 2; C-terminal NH2) [SEQ ID NO: 225] | EC50 hGlucagon-R (cAMP) | nM | 2.87

Would you mind listing EC50 hGlucagon-R (cAMP) for each of the following binders?
1. HXQGTFTSDLSKQKDSRRAQDFIEWLKKGGPSSGAPPPS (dSer at 2; K(γE-x53) at 14; C-terminal NH2) [SEQ ID NO: 84]
2. HXQGTFTSDLSKQKESRRAQDFIEWLKAGGPSSGAPPPS (dSer at 2; K(γE-x53) at 14; C-terminal NH2) [SEQ ID NO: 4]
3. H[Aib]QGTFTSDLSKQK([γGlu-X70])EEEAARLFIEWLKAGGPSSGAPPPS-NH2 (reading uncertain) [SEQ ID NO: 215]
4. HXQGTFTSDLSKQKDSRRAQDFIEWLKAGGPSSGAPPPS (dSer at 2; K(γE-x53) at 14; C-terminal NH2) [SEQ ID NO: 74]
5. HXQGTFTSDLSKQMESRRAQDFIEWLKAGGPSSGAPPPS (dSer at 2; C-terminal NH2) [SEQ ID NO: 184]

(A)
0.0043
0.004
0.0426
0.0013
0.991
